- condition: in n-butanol, 308.15 K
assay-endpoint: solubility (mole fraction)
Lab note: record the figure alone, no unit after it.

Using the record for "Nc1cc(C(=O)O)ccc1C(=O)O" , report its solubility (mole fraction).
0.00854

---

- condition: in ethanol, 333.15 K
assay-endpoint: solubility (mole fraction)
Lab note: record the figure alone, no unit after it.

Using the record for "Nc1cc(C(=O)O)ccc1C(=O)O" , report its solubility (mole fraction).
0.06

---

- condition: in n-butanol, 313.15 K
assay-endpoint: solubility (mole fraction)

Using the record for "Nc1cc(C(=O)O)ccc1C(=O)O" , report its solubility (mole fraction).
0.0098

---

- condition: in ethanol, 323.15 K
assay-endpoint: solubility (mole fraction)
Lab note: record the figure alone, no unit after it.

Using the record for "Nc1cc(C(=O)O)ccc1C(=O)O" , report its solubility (mole fraction).
0.051

---

- condition: in tert-butanol, 308.15 K
assay-endpoint: solubility (mole fraction)
Lab note: record the figure alone, no unit after it.

Using the record for "Nc1cc(C(=O)O)ccc1C(=O)O" , report its solubility (mole fraction).
0.0237

---

- condition: in methanol, 328.15 K
assay-endpoint: solubility (mole fraction)

Using the record for "Nc1cc(C(=O)O)ccc1C(=O)O" , report its solubility (mole fraction).
0.0982

---

- condition: in n-butanol, 318.15 K
assay-endpoint: solubility (mole fraction)
Lab note: record the figure alone, no unit after it.

Using the record for "Nc1cc(C(=O)O)ccc1C(=O)O" , report its solubility (mole fraction).
0.0112

---

- condition: in isopropanol, 323.15 K
assay-endpoint: solubility (mole fraction)
Lab note: record the figure alone, no unit after it.

Using the record for "Nc1cc(C(=O)O)ccc1C(=O)O" , report its solubility (mole fraction).
0.0326

---

- condition: in tert-butanol, 323.15 K
assay-endpoint: solubility (mole fraction)

Using the record for "Nc1cc(C(=O)O)ccc1C(=O)O" , report its solubility (mole fraction).
0.0315

---

- condition: in isopentanol, 303.15 K
assay-endpoint: solubility (mole fraction)

Using the record for "Nc1cc(C(=O)O)ccc1C(=O)O" , report its solubility (mole fraction).
0.00536

---

- condition: in tert-butanol, 318.15 K
assay-endpoint: solubility (mole fraction)
Lab note: record the figure alone, no unit after it.

Using the record for "Nc1cc(C(=O)O)ccc1C(=O)O" , report its solubility (mole fraction).
0.0293

---

- condition: in isopropanol, 308.15 K
assay-endpoint: solubility (mole fraction)

Using the record for "Nc1cc(C(=O)O)ccc1C(=O)O" , report its solubility (mole fraction).
0.0236

---

- condition: in ethanol, 313.15 K
assay-endpoint: solubility (mole fraction)
Lab note: record the figure alone, no unit after it.

Using the record for "Nc1cc(C(=O)O)ccc1C(=O)O" , report its solubility (mole fraction).
0.0422

---

- condition: in sec-butanol, 338.15 K
assay-endpoint: solubility (mole fraction)
Lab note: record the figure alone, no unit after it.

Using the record for "Nc1cc(C(=O)O)ccc1C(=O)O" , report its solubility (mole fraction).
0.0297

---

- condition: in sec-butanol, 308.15 K
assay-endpoint: solubility (mole fraction)
Lab note: record the figure alone, no unit after it.

Using the record for "Nc1cc(C(=O)O)ccc1C(=O)O" , report its solubility (mole fraction).
0.0119

---

- condition: in ethanol, 328.15 K
assay-endpoint: solubility (mole fraction)
Lab note: record the figure alone, no unit after it.

Using the record for "Nc1cc(C(=O)O)ccc1C(=O)O" , report its solubility (mole fraction).
0.0552

---

- condition: in isopentanol, 308.15 K
assay-endpoint: solubility (mole fraction)
Lab note: record the figure alone, no unit after it.

Using the record for "Nc1cc(C(=O)O)ccc1C(=O)O" , report its solubility (mole fraction).
0.00583

---

- condition: in sec-butanol, 303.15 K
assay-endpoint: solubility (mole fraction)

Using the record for "Nc1cc(C(=O)O)ccc1C(=O)O" , report its solubility (mole fraction).
0.00989

---

- condition: in tert-butanol, 313.15 K
assay-endpoint: solubility (mole fraction)
Lab note: record the figure alone, no unit after it.

Using the record for "Nc1cc(C(=O)O)ccc1C(=O)O" , report its solubility (mole fraction).
0.0268

---

- condition: in sec-butanol, 313.15 K
assay-endpoint: solubility (mole fraction)
Lab note: record the figure alone, no unit after it.

Using the record for "Nc1cc(C(=O)O)ccc1C(=O)O" , report its solubility (mole fraction).
0.0139

---

- condition: in n-propanol, 308.75 K
assay-endpoint: solubility (mole fraction)
Lab note: record the figure alone, no unit after it.

Using the record for "Nc1cc(C(=O)O)ccc1C(=O)O" , report its solubility (mole fraction).
0.0165

---

- condition: in tert-butanol, 333.15 K
assay-endpoint: solubility (mole fraction)

Using the record for "Nc1cc(C(=O)O)ccc1C(=O)O" , report its solubility (mole fraction).
0.0375

---

- condition: in n-propanol, 338.15 K
assay-endpoint: solubility (mole fraction)
Lab note: record the figure alone, no unit after it.

Using the record for "Nc1cc(C(=O)O)ccc1C(=O)O" , report its solubility (mole fraction).
0.0392

---

- condition: in ethanol, 318.15 K
assay-endpoint: solubility (mole fraction)
Lab note: record the figure alone, no unit after it.

Using the record for "Nc1cc(C(=O)O)ccc1C(=O)O" , report its solubility (mole fraction).
0.0461

---

- condition: in isopropanol, 303.15 K
assay-endpoint: solubility (mole fraction)
Lab note: record the figure alone, no unit after it.

Using the record for "Nc1cc(C(=O)O)ccc1C(=O)O" , report its solubility (mole fraction).
0.0211

---

- condition: in tert-butanol, 338.15 K
assay-endpoint: solubility (mole fraction)
Lab note: record the figure alone, no unit after it.

Using the record for "Nc1cc(C(=O)O)ccc1C(=O)O" , report its solubility (mole fraction).
0.0421

---

- condition: in methanol, 318.15 K
assay-endpoint: solubility (mole fraction)
Lab note: record the figure alone, no unit after it.

Using the record for "Nc1cc(C(=O)O)ccc1C(=O)O" , report its solubility (mole fraction).
0.0853

---

- condition: in isopropanol, 318.15 K
assay-endpoint: solubility (mole fraction)
Lab note: record the figure alone, no unit after it.

Using the record for "Nc1cc(C(=O)O)ccc1C(=O)O" , report its solubility (mole fraction).
0.0293

---

- condition: in n-propanol, 323.15 K
assay-endpoint: solubility (mole fraction)
Lab note: record the figure alone, no unit after it.

Using the record for "Nc1cc(C(=O)O)ccc1C(=O)O" , report its solubility (mole fraction).
0.0256

---

- condition: in isopentanol, 333.15 K
assay-endpoint: solubility (mole fraction)
Lab note: record the figure alone, no unit after it.

Using the record for "Nc1cc(C(=O)O)ccc1C(=O)O" , report its solubility (mole fraction).
0.00895

---

- condition: in methanol, 338.15 K
assay-endpoint: solubility (mole fraction)
Lab note: record the figure alone, no unit after it.

Using the record for "Nc1cc(C(=O)O)ccc1C(=O)O" , report its solubility (mole fraction).
0.112

---

- condition: in tert-butanol, 303.15 K
assay-endpoint: solubility (mole fraction)
Lab note: record the figure alone, no unit after it.

Using the record for "Nc1cc(C(=O)O)ccc1C(=O)O" , report its solubility (mole fraction).
0.0216

---

- condition: in methanol, 313.15 K
assay-endpoint: solubility (mole fraction)
Lab note: record the figure alone, no unit after it.

Using the record for "Nc1cc(C(=O)O)ccc1C(=O)O" , report its solubility (mole fraction).
0.0794

---

- condition: in isopentanol, 323.15 K
assay-endpoint: solubility (mole fraction)
Lab note: record the figure alone, no unit after it.

Using the record for "Nc1cc(C(=O)O)ccc1C(=O)O" , report its solubility (mole fraction).
0.00764

---

- condition: in n-propanol, 303.25 K
assay-endpoint: solubility (mole fraction)
Lab note: record the figure alone, no unit after it.

Using the record for "Nc1cc(C(=O)O)ccc1C(=O)O" , report its solubility (mole fraction).
0.0137

---

- condition: in ethanol, 338.15 K
assay-endpoint: solubility (mole fraction)

Using the record for "Nc1cc(C(=O)O)ccc1C(=O)O" , report its solubility (mole fraction).
0.0655

---

- condition: in n-butanol, 333.15 K
assay-endpoint: solubility (mole fraction)
Lab note: record the figure alone, no unit after it.

Using the record for "Nc1cc(C(=O)O)ccc1C(=O)O" , report its solubility (mole fraction).
0.0168

---

- condition: in isopropanol, 338.15 K
assay-endpoint: solubility (mole fraction)

Using the record for "Nc1cc(C(=O)O)ccc1C(=O)O" , report its solubility (mole fraction).
0.0441

---

- condition: in n-propanol, 333.15 K
assay-endpoint: solubility (mole fraction)
Lab note: record the figure alone, no unit after it.

Using the record for "Nc1cc(C(=O)O)ccc1C(=O)O" , report its solubility (mole fraction).
0.0334

---

- condition: in n-propanol, 318.15 K
assay-endpoint: solubility (mole fraction)
Lab note: record the figure alone, no unit after it.

Using the record for "Nc1cc(C(=O)O)ccc1C(=O)O" , report its solubility (mole fraction).
0.0223

These entries and their values trace back to BigSolDB 2.1.
